tested on: anti-SP-4 antiserum; assay: ELISA cross-reactivity: peptide-coated plates treated with anti-SP-4 antiserum; format: binding, rabbit; settings: FIG. 4
Reported endpoint: binding of anti-SP-4 antiserum to the peptide

Substance	Meas value
CH3 CONH-Tyr-Lys-Leu-Ala-Leu-Glu-Ala-Ala-Arg-Leu-Leu-Ala-Asn-Ala-Glu-Gly-Ala-Lys-CONH2 (Ac-YKLALEAARLLANAEGAK-NH2) [SP-8A, modified counterpart of SP-8]	bind
H2 N-Tyr-Lys-Leu-Ala-Leu-Glu-Ala-Ala-Arg-Leu-Leu-Ala-Asp-Ala-Glu-Gly-Ala-Lys- CONH2 (H-YKLALEAARLLADAEGAK-NH2) [SP-6, conservatively substituted SP-4]	bind
